- TARGET UNDER TEST: Peroxisome proliferator-activated receptor alpha (Homo sapiens)
- Sequence (Q07869 whole entry, the tested form may be a part): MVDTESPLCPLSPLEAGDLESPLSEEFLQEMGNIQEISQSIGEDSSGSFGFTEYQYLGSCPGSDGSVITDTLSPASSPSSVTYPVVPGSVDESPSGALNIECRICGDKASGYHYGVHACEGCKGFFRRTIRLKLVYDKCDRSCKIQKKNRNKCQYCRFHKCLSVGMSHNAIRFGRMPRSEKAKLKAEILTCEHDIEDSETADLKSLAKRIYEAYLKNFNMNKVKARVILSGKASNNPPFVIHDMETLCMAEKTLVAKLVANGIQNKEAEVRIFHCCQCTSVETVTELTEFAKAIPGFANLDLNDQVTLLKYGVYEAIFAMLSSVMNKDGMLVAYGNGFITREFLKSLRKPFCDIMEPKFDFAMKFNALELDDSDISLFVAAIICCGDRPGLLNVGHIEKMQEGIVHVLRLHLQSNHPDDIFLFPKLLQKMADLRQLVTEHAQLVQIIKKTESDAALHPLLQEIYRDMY
- EXPERIMENT DESCRIPTION: Agonist activity at GAL4-tagged human PPARalpha ligand binding domain expressed in HepG2 cells assessed as transactivation after 20 hrs by beta-galactosidase reporter gene assay relative to Wy-14643
- Format: cell-based
# binning rule on Emax: Low = under 60%, Mid = from 60% up to 80%, High = 80% and over

Please review the following examples before continuing.
Band assignment needed for O=C(O)C(Cc1ccccc1)Oc1ccc(Cl)c(F)c1 (configuration not stated) please. Low

Band assignment needed for O=C(O)C(Cc1ccccc1)Oc1cccc(F)c1 (racemic) please. Low

Band assignment needed for O=C(O)[C@H](Cc1ccc(Cl)cc1)Oc1ccc(Cl)cc1F please. Mid

Band assignment needed for O=C(O)[C@H](Cc1ccccc1)Oc1cccc(C(F)(F)F)c1 please. Mid

Band assignment needed for O=C(O)C(Cc1ccccc1F)Oc1ccc(Cl)cc1 (racemic) please. Mid

New cases:
Band assignment needed for O=C(O)C(Cc1ccc(Cl)cc1)Oc1ccc(Cl)cc1F (racemic) please. Mid

Band assignment needed for O=C(O)C(Cc1ccc(F)cc1)Oc1ccc(Cl)cc1 (racemic) please. Mid

Band assignment needed for O=C(O)C(Cc1cccc(F)c1)Oc1ccc(Cl)cc1F (racemic) please. High

Band assignment needed for O=C(O)C(Cc1ccccc1)Oc1ccccc1F (racemic) please. Low

---

- TARGET UNDER TEST: Peroxisome proliferator-activated receptor gamma (Homo sapiens)
- Sequence (P37231 whole entry): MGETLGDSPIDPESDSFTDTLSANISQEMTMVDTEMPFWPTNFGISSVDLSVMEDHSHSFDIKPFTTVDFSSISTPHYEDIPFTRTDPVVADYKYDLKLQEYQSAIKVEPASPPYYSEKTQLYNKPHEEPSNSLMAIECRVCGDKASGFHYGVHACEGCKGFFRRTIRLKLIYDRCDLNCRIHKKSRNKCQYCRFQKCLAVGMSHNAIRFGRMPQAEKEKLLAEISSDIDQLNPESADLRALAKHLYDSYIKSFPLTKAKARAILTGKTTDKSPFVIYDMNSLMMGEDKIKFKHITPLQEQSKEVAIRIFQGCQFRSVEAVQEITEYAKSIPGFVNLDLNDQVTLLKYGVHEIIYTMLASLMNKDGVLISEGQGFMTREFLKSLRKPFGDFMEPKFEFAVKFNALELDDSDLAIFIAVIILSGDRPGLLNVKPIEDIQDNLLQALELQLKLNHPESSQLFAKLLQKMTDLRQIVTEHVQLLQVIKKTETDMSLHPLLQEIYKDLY
- EXPERIMENT DESCRIPTION: Agonist activity at GAL4-tagged human PPARgamma ligand binding domain expressed in HepG2 cells assessed as transactivation after 20 hrs by beta-galactosidase reporter gene assay
- Assay type: cell-based
# key: entry, value: log10 EC50
A value of 2 here means EC50 of 100 in µM, since values are log10.

So what does the record say about log10 EC50 for O=C(O)C(Cc1cccc(F)c1)Oc1ccccc1C(F)(F)F (racemic) ? 1.06

In the following, a different molecule is considered.
So what does the record say about log10 EC50 for O=C(O)C(Oc1cccc(C(F)(F)F)c1)c1ccc(Cl)cc1 (centres undefined) ? 1.00

---

- TARGET UNDER TEST: Peroxisome proliferator-activated receptor alpha (Homo sapiens)
- EXPERIMENT DESCRIPTION: Agonist activity at GAL4-tagged human PPARalpha ligand binding domain expressed in HepG2 cells assessed as transactivation after 20 hrs by beta-galactosidase reporter gene assay
- Type: cell-based
# key: entry, value: pEC50
Scale note: pEC50 = -log10(concentration in M).

Here are 3 compounds together with their reported answers.
So what does the record say about pEC50 for O=C(O)C(Cc1ccccc1F)Oc1ccc(Cl)cc1 (racemic) ? 5.18

So what does the record say about pEC50 for O=C(O)[C@H](Cc1ccccc1)Oc1ccc(Cl)cc1 ? 5.31

So what does the record say about pEC50 for O=C(O)[C@H](Cc1ccccc1)Oc1ccc(F)cc1 ? 4.61

New cases:
So what does the record say about pEC50 for O=C(O)C(Cc1ccccc1)Oc1cccc(F)c1 (racemic) ? 4.68

---

- TARGET UNDER TEST: Peroxisome proliferator-activated receptor gamma (Homo sapiens) (UniProt P37231)
- Sequence (whole entry): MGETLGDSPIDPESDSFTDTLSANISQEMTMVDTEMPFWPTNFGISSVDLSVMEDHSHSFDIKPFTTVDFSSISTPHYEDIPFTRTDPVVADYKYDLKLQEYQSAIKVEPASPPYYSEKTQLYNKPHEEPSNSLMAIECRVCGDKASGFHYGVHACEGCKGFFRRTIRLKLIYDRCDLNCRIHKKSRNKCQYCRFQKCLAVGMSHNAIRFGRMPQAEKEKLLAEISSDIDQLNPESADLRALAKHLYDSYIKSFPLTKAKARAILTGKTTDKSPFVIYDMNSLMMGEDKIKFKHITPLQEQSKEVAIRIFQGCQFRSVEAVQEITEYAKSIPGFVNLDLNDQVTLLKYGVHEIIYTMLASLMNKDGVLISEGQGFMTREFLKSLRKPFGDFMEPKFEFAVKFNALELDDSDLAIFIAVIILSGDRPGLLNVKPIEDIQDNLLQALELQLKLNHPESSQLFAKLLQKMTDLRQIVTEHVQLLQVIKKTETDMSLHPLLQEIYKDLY
- EXPERIMENT DESCRIPTION: Agonist activity at GAL4-tagged human PPARgamma ligand binding domain expressed in HepG2 cells assessed as transactivation after 20 hrs by beta-galactosidase reporter gene assay relative to pioglitazone
- Format: cell-based
OBSERVABLE: Emax (%)
Report the value in % with no unit label.

Here are 3 compounds together with their reported answers.
So what does the record say about Emax for O=C(O)C(Cc1ccccc1)Oc1ccccc1C(F)(F)F (racemic) ? 13

So what does the record say about Emax for O=C(O)C(Cc1cccc(F)c1)Oc1ccc(Cl)cc1 (racemic) ? 52

So what does the record say about Emax for O=C(O)C(Oc1ccc(Cl)cc1F)c1ccccc1 (centres undefined) ? 11

In the following, a different compound is considered.
So what does the record say about Emax for O=C(O)C(Cc1ccc(F)cc1)Oc1ccc(Cl)cc1 (racemic) ? 57

---

- TARGET UNDER TEST: Peroxisome proliferator-activated receptor alpha (Homo sapiens) (UniProt Q07869)
- EXPERIMENT DESCRIPTION: Agonist activity at GAL4-tagged human PPARalpha ligand binding domain expressed in HepG2 cells assessed as transactivation after 20 hrs by beta-galactosidase reporter gene assay relative to Wy-14643
- Type: cell-based
# cutoff 60% applies to Emax; >= gives 1, < gives 0

Please review the following examples before continuing.
Hi team, for O=C(O)[C@H](Cc1ccccc1)Oc1ccc(C(F)(F)F)cc1 , is the recorded Emax at or above 60%? 1

Hi team, for O=C(O)C(Cc1cccc(F)c1)Oc1ccc(Cl)cc1 (racemic) , is the recorded Emax at or above 60%? 1

Hi team, for O=C(O)[C@H](Cc1ccccc1)Oc1ccc(F)cc1 , is the recorded Emax at or above 60%? 0

Hi team, for O=C(O)[C@H](Cc1ccccc1)Oc1ccc(Cl)cc1F , is the recorded Emax at or above 60%? 1

Hi team, for O=C(O)C(Oc1ccc(Cl)cc1F)c1ccccc1 (stereo not drawn) , is the recorded Emax at or above 60%? 1

New cases:
Hi team, for O=C(O)[C@H](Cc1ccccc1)Oc1ccc(Cl)cc1 , is the recorded Emax at or above 60%? 1

Hi team, for O=C(O)C(Oc1ccc(Cl)cc1F)c1ccc(Cl)cc1 (stereo not drawn) , is the recorded Emax at or above 60%? 0

---

# key: entry, value: log10(EC50)
- TARGET UNDER TEST: Peroxisome proliferator-activated receptor gamma (Homo sapiens, UniProt P37231)
- EXPERIMENT DESCRIPTION: Agonist activity at GAL4-tagged human PPARgamma ligand binding domain expressed in HepG2 cells assessed as transactivation after 20 hrs by beta-galactosidase reporter gene assay
- Format: cell-based
A value of 2 here means EC50 of 100 in µM, since values are log10.

So what does the record say about log10(EC50) for O=C(O)C(Oc1ccc(Cl)cc1F)c1ccccc1 (configuration not stated) ? 1.51

---

- TARGET UNDER TEST: Peroxisome proliferator-activated receptor gamma (Homo sapiens, UniProt P37231)
- EXPERIMENT DESCRIPTION: Agonist activity at GAL4-tagged human PPARgamma ligand binding domain expressed in HepG2 cells assessed as transactivation after 20 hrs by beta-galactosidase reporter gene assay
- Type: cell-based
OBSERVABLE: pEC50
Scale note: pEC50 = -log10(concentration in M).

Here are 3 compounds together with their reported answers.
So what does the record say about pEC50 for O=C(O)[C@H](Cc1ccc(Cl)cc1)Oc1ccc(Cl)cc1F ? 6.30

So what does the record say about pEC50 for O=C(O)C(Cc1ccccc1)Oc1ccc(Cl)c(F)c1 (stereo unspecified) ? 4.85

So what does the record say about pEC50 for O=C(O)[C@H](Cc1ccccc1)Oc1ccc(Cl)cc1F ? 5.60

New cases:
So what does the record say about pEC50 for O=C(O)C(Cc1cccc(F)c1)Oc1ccc(Cl)cc1F (racemic) ? 5.62

So what does the record say about pEC50 for O=C(O)C(Cc1ccccc1)Oc1ccc(Cl)c(C(F)(F)F)c1 (stereo unspecified) ? 5.24

So what does the record say about pEC50 for O=C(O)C(Oc1ccc(Cl)cc1F)c1ccc(Cl)cc1 (stereo unspecified) ? 4.79
